biological target: furin, P09958; experiment: furin cleavage Z-score vs untreated control; higher = more cleavage, active = 3.5 or more, inactive = 1 or less, 8 variable residues between constant flanks; conditions: 7.5 min;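 note: purified furin at 1:10 enzyme:substrate in 50 mM HEPES pH 7.5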
Sequence (P09958 whole entry): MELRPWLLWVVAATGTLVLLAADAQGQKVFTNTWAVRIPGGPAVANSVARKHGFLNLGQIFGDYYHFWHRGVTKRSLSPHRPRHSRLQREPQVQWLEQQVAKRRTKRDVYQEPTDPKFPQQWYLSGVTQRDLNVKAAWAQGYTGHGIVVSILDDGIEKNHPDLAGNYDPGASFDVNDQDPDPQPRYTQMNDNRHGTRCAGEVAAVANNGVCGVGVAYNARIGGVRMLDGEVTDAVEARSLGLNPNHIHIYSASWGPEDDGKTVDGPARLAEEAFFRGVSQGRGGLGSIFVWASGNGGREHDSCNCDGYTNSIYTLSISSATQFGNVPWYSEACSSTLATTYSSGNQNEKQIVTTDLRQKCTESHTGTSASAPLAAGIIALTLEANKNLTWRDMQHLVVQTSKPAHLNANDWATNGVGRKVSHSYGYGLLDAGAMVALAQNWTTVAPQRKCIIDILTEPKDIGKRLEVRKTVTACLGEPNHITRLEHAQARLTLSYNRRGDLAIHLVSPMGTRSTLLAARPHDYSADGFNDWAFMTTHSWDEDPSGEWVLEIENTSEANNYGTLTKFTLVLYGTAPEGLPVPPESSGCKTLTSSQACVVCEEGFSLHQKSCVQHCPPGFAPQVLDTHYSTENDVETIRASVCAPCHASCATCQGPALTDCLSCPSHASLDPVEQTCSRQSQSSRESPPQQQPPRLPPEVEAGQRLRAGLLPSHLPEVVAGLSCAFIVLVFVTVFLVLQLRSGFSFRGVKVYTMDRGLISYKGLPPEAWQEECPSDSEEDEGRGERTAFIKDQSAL
The list shows a part of the results. The true hit rate is not given.
# key: entry, value: furin cleavage Z-score
Write no unit; give the number alone.

Answered examples (5):
{"Sequence string": "CAKQLRLKRDAGNASASA [FS-814]", "furin cleavage Z-score": 15}
{"Sequence string": "CARSTRDVQAAGNASASA [FS-3212]", "furin cleavage Z-score": 6.84}
{"Sequence string": "CAREGRSKALAGNASASA [FS-2911]", "furin cleavage Z-score": 0.205}
{"Sequence string": "CAKFPGGGQIAGNASASA [HC172]", "furin cleavage Z-score": -2.08}
{"Sequence string": "CATTPCSGSNAGNASASA [HC1941]", "furin cleavage Z-score": -1.17}

GET /values?readout=furin cleavage Z-score&item= CARRSRSPRTAGNASASA [FS-3069] 8.32

Param item: CARYGRCKRDAGNASASA [FS-715] 15.2

Param item: CAMEMEECSQAGNASASA [HC1786] 0.949

Param item: CARKKRVHFHAGNASASA [FS-2271] -0.215
